- Tested on: cancer cell lines
- Method summary: Cancer cell proliferation activity (CellTiterGlo, 72 h)
- Type: cell-based
- Experimental parameters: RD-ES, 72 h, RDES (bone), 72 h; read-out: IC50 cell proliferation
- Procedure: Dose response relationships on cell proliferation was assessed for representative Compounds of the Disclosure on cancer cell lines. […] Cells were cultured in the appropriate media. […] After incubation for 72 h at 37° C. at 5% or 10% CO2 dependent on the medium, cell plates were equilibrated to room temperature for one hour, CellTiterGlo reagent (Promega) was added and luminescence was measured approximately an hour later using a luminometer. […]
What IC50 was measured for each of the following?
Provide only the numeric value, understood in nM.

Would you kindly share the measured IC50 for CCC[C@]1(CO)O[C@@H](n2cnc3c(N)nc(F)nc32)[C@H](O)[C@@H]1O ?
40

What do we get for Nc1nc(F)nc2c1ncn2[C@@H]1O[C@H](CO)[C@@H](O)[C@@H]1O ?
35300

What do we get for Nc1ccn([C@H]2C[C@H](O)[C@](CO)(CF)O2)c(=O)n1 ?
1900

What do we get for Nc1nc(=O)n([C@H]2C[C@H](O)[C@](CO)(CF)O2)cc1F ?
10400

What do we get for Nc1nc(F)nc2c1ncn2[C@H]1C[C@H](O)[C@@H](CO)O1 ?
820

What do we get for C[C@]1(CO)O[C@@H](n2cnc3c(N)nc(F)nc32)[C@H](O)[C@@H]1O ?
30

What do we get for Nc1nc(F)nc2c1ncn2[C@@H]1O[C@H](CO)[C@@H](O)[C@H]1O ?
20

What do we get for Nc1nc(=O)n([C@H]2C[C@H](O)[C@@H](CO)O2)cc1F ?
7

----------
What IC50 was measured for each of the following?
- Test system: cancer cell lines
- Method summary: Cancer cell proliferation activity (CellTiterGlo, 72 h)
- Type: cell-based
- Experimental parameters: Homo sapiens, IMR-90, 72 h, IMR90 (lung), 72 h; read-out: IC50 cell proliferation
Provide only the numeric value, understood in nM.

Would you kindly share the measured IC50 for C[C@]1(CO)O[C@@H](n2ccc(N)nc2=O)[C@@H](O)[C@@H]1O ?
4160

What do we get for C[C@]1(CO)O[C@@H](n2cnc3c(N)nc(F)nc32)[C@H](O)[C@@H]1O ?
50

What do we get for Nc1nc(F)nc2c1ncn2[C@@H]1O[C@H](CO)[C@@H](O)[C@H]1O ?
30

What do we get for Nc1nc(F)nc2c1ncn2[C@H]1C[C@H](O)[C@@H](CO)O1 ?
540

What do we get for Nc1nc(F)nc2c1ncn2[C@@H]1O[C@H](CO)[C@@H](O)[C@@H]1O ?
11800

What do we get for CCC[C@]1(CO)O[C@@H](n2cnc3c(N)nc(F)nc32)[C@H](O)[C@@H]1O ?
60

----------
- Assay target: UniProt:P32320
- Sequence (P32320 whole entry): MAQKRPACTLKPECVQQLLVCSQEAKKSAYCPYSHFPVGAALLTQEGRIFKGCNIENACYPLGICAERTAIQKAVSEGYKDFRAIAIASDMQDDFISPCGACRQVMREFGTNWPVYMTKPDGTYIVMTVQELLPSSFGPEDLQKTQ
- Method summary: Metabolism by human cytidine deaminase (CDA), substrate absorbance at 290 nm
- Experimental parameters: 12 nM CDA, 50 and 200 uM substrate, 37° C., pH 7.5; figure legends FIG. 4-9
Measured property: metabolism (deamination) by human CDA (line graph)

>  <Molecule>
N#C[C@]1(CO)O[C@@H](n2cc(F)c(N)nc2=O)C[C@@H]1O [Cpd. No. 6]

>  <Value observed>
not metabolized

$$$$
>  <Molecule>
Nc1nc(=O)n([C@H]2C[C@H](O)[C@](CO)(CF)O2)cc1F [Cpd. No. 197]

>  <Value observed>
not metabolized

$$$$
>  <Molecule>
C[C@]1(CO)O[C@@H](n2ccc(N)nc2=O)C(F)(F)[C@@H]1O [Cpd. No. 190]

>  <Value observed>
not metabolized

$$$$

----------
- Tested on: cancer cell lines
- Method summary: Cancer cell proliferation activity (CellTiterGlo, 72 h)
- Type: cell-based
- Experimental parameters: Homo sapiens, BXPC-3, 72 h, BXPC3 (pancreas), 72 h; read-out: IC50 cell proliferation
What IC50 was measured for each of the following?
Provide only the numeric value, understood in nM.

Quick check: IC50 on cancer cell lines, item C#C[C@]1(CO)O[C@@H](n2cc(Cl)c(N)nc2=O)C[C@@H]1O ?
500

What do we get for Nc1nc(F)nc2c1ncn2[C@H]1C[C@H](O)[C@](CO)(CC2CC2)O1 ?
3280

What do we get for O=c1[nH]c(=O)n([C@H]2C[C@H](O)[C@@H](CO)O2)cc1F ?
2

What do we get for N#C[C@]1(CO)O[C@@H](n2cc(F)c(=O)[nH]c2=O)C[C@@H]1O ?
1000

What do we get for CCC[C@]1(CO)O[C@@H](n2cnc3c(N)nc(F)nc32)[C@H](O)[C@@H]1O ?
80

What do we get for Nc1nc(F)nc2c1ncn2[C@@H]1O[C@H](CO)[C@@H](O)[C@@H]1O ?
6870

What do we get for Nc1nc(=O)n([C@H]2C[C@H](O)[C@@H](CO)O2)cc1F ?
1

----------
- System: cancer cell lines
- Method summary: Cancer cell proliferation activity (CellTiterGlo, 72 h)
- Assay type: cell-based
- Experimental parameters: Homo sapiens, C-33-A, 72 h, C33A (endometrial), 72 h; read-out: IC50 cell proliferation
Measured property: log10 IC50 (log10 of the value in nM)
Hey, these are logged values: log10 of IC50, nM being the unit before logging.

Would you kindly share the measured log10 IC50 for Nc1nc(F)nc2c1ncn2[C@@H]1O[C@H](CO)[C@@H](O)[C@@H]1O ?
3.98

What do we get for C[C@]1(CO)O[C@@H](n2cnc3c(N)nc(F)nc32)[C@H](O)[C@@H]1O ?
1.78

What do we get for Nc1nc(=O)n([C@H]2C[C@H](O)[C@](CO)(CF)O2)cc1F ?
1.67

What do we get for Nc1ccn([C@H]2C[C@H](O)[C@](CO)(CF)O2)c(=O)n1 ?
2.38

What do we get for CCC[C@]1(CO)O[C@@H](n2cnc3c(N)nc(F)nc32)[C@H](O)[C@@H]1O ?
2.58

----------
- System: cancer cell lines
- Method summary: Cancer cell proliferation activity (CellTiterGlo, 72 h)
- Type: cell-based
- Experimental parameters: Homo sapiens, Kasumi 1, 72 h, KASUMI-1 cell line (hematological), 72 h; read-out: IC50
Measured property: IC50 (nM)
Provide only the numeric value, understood in nM.

Would you kindly share the measured IC50 for CC[C@]1(CO)O[C@@H](n2cnc3c(N)nc(F)nc32)C[C@@H]1O [Cpd. No. 1] ?
150

What do we get for CC(C)C[C@]1(CO)O[C@@H](n2cnc3c(N)nc(F)nc32)C[C@@H]1O [Cpd. No. 133] ?
1540

What do we get for Nc1ccn([C@@H]2O[C@H](CO)[C@@H](O)C2(F)F)c(=O)n1 [gemcitabine, reference compound] ?
3.5

What do we get for Nc1nc(F)nc2c1ncn2[C@H]1C[C@H](O)[C@](CO)(CF)O1 [compound 150] ?
2160

----------
What pIC50 was measured for each of the following?
- Test system: cancer cell lines
- Method summary: Cancer cell proliferation activity (CellTiterGlo, 72 h)
- Assay type: cell-based
- Experimental parameters: NCI-H358M, 72 h, NCIH358M cell line (lung), 72 h; read-out: IC50
Would you please state pIC50, meaning minus log10 of the concentration in mol/L, as a bare number?

Quick check: pIC50 on cancer cell lines, item C[C@]1(CO)O[C@@H](n2cnc3c(N)nc(F)nc32)C[C@@H]1O ?
6.52

What do we get for Nc1nc(F)nc2c1ncn2[C@H]1C[C@H](O)[C@](CO)(CF)O1 ?
5.58

What do we get for C[C@]1(CO)O[C@@H](n2cc(F)c(=O)[nH]c2=O)C[C@@H]1O ?
5.87

What do we get for Nc1ccn([C@@H]2O[C@H](CO)[C@@H](O)C2(F)F)c(=O)n1 [gemcitabine, reference compound] ?
8.46

What do we get for CCC[C@]1(CO)O[C@@H](n2cnc3c(N)nc(F)nc32)C[C@@H]1O ?
6.57

What do we get for CC[C@]1(CO)O[C@@H](n2cnc3c(N)nc(F)nc32)C[C@@H]1O ?
6.25

What do we get for COC[C@]1(CO)O[C@@H](n2cnc3c(N)nc(F)nc32)C[C@@H]1O ?
6.37

What do we get for C[C@]1(CO)O[C@@H](n2cc(F)c(N)nc2=O)C[C@@H]1O ?
7.15

What do we get for O=c1[nH]c(=O)n([C@H]2C[C@H](O)[C@](CO)(CF)O2)cc1F ?
5.04

What do we get for CC[C@]1(CO)O[C@@H](n2cnc3c(N)nc(F)nc32)[C@H](O)[C@@H]1O ?
6.82

What do we get for C=C[C@]1(CO)O[C@@H](Nc2[nH]c(=O)ncc2Br)C[C@@H]1O ?
5.57

What do we get for CC(C)C[C@]1(CO)O[C@@H](n2cnc3c(N)nc(F)nc32)C[C@@H]1O ?
5.57
